Hey, just so you know, these numbers are from patent US9399626B2.

testedTarget: MPO (purified from human polynuclear leukocytes) (Homo sapiens)
Construct: purified from human polynuclear leukocytes; purchased Calbiochem/EMD Biosciences; host or cells: human polynuclear leukocytes (natural source)
experiment: MPO Amplex Red Activity Assay
Assay type: biochemical
measurementParameters: Table 1, 2 μM H2O2, pH 7.4
Structures can show the parent of a compound that is named as a salt.
propertyName: MPO kinact/Ki

Here's what some known entries look like.
COc1cc2ccccc2cc1-c1cc(=O)[nH]c(=S)n1CC(N)=O [Example 112]	14900 1/s per M
COc1cc(OC)c(-c2cc(=O)[nH]c(=S)n2CCO)cc1OC [Example 202]	8280 1/s per M
COc1ccc(-c2cc(=O)[nH]c(=S)n2CCNC(=O)[C@H](C)N)c(OC)c1 [Example 256, trifluoroacetate]	6520 1/s per M
COc1cc(F)ccc1-c1cc(=O)[nH]c(=S)n1CCN [Example 25, hydrochloride]	9210 1/s per M
COCCn1c(-c2cccc(F)c2)cc(=O)[nH]c1=S [Example 289]	1580 1/s per M
COc1ccc(-c2cc(=O)[nH]c(=S)n2CCNC(=O)[C@@H](C)N)c(OC)c1 [Example 255, trifluoroacetate]	3550 1/s per M
COc1ccc(-c2cc(=O)[nH]c(=S)n2CCNCC(N)=O)c(OC)c1 [Example 242]	142 1/s per M

Okay, next one:
State the recorded MPO kinact/Ki for this entry: COc1ccc(F)cc1-c1cc(=O)[nH]c(=S)n1CCCN [Example 58, hydrochloride] 11700 1/s per M

====

testedTarget: MPO (purified from human polynuclear leukocytes) (Homo sapiens, UniProt P05164)
Construct: purified from human polynuclear leukocytes; purchased Calbiochem/EMD Biosciences; host or cells: human polynuclear leukocytes (natural source)
Sequence (P05164 279-745 limits assumed): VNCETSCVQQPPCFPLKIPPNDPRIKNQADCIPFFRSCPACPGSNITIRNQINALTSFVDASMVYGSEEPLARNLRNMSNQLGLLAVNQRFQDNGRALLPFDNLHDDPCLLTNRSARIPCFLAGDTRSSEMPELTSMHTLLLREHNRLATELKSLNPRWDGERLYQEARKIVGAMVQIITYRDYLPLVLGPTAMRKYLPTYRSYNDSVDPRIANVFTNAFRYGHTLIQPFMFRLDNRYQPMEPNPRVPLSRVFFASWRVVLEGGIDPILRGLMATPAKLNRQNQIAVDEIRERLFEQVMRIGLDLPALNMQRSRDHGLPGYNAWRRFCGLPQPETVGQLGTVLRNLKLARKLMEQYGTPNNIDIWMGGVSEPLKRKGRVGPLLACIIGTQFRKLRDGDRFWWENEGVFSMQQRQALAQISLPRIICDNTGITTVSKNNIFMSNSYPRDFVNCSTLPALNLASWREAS
Sequence (P05164 165-273 limits assumed): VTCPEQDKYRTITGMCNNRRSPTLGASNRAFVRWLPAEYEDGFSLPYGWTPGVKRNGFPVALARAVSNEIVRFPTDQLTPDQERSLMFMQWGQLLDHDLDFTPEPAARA
experiment: MPO Amplex Red Activity Assay
Format: biochemical
measurementParameters: Table 1, 2 μM H2O2, pH 7.4
Where a name gives a salt, the structure may show the parent alone.
propertyName: MPO kinact/Ki

COc1ccc(-c2cc(=O)[nH]c(=S)n2C[C@H](C)N)c(OC)c1 [Example 176, hydrochloride]	2160 1/s per M
COc1ccc(-c2cc(=O)[nH]c(=S)n2CC2CCN(C(=N)N)C2)c(OC)c1 (stereo not drawn) [Example 259, trifluoroacetate]	4000 1/s per M
COCCn1c(-c2ccc(N(C)C)nc2)cc(=O)[nH]c1=S [Example 165]	1280 1/s per M
COCCn1c(-c2cccc3ncccc23)cc(=O)[nH]c1=S [Example 321]	2480 1/s per M
COc1ccc(-c2cc(=O)[nH]c(=S)n2CCCCN)c(OC)c1 [Example 191, hydrochloride]	14100 1/s per M

State the recorded MPO kinact/Ki for this entry: NCCn1c(-c2cccc(Br)c2)cc(=O)[nH]c1=S [Example 183, hydrochloride] 4830 1/s per M

Follow-up item: COCCn1c(-c2ccc(Cl)cc2OC)cc(=O)[nH]c1=S [Example 335] 9820 1/s per M

Follow-up item: COc1cccc(-c2cc(=O)[nH]c(=S)n2CCO)c1 [Example 155] 8090 1/s per M

Follow-up item: COCCn1c(-c2cc(F)ccc2OC(F)(F)F)cc(=O)[nH]c1=S [Example 346] 5890 1/s per M

====

testedTarget: MPO (purified from human polynuclear leukocytes) (Homo sapiens)
Construct: purified from human polynuclear leukocytes; purchased Calbiochem/EMD Biosciences; host or cells: human polynuclear leukocytes (natural source)
experiment: MPO Amplex Red Activity Assay
Format: biochemical
measurementParameters: Table 1A, 2 μM H2O2, pH 7.4
propertyName: MPO kinact/Ki

Here's what some known entries look like.
COc1ccc(OCCO)c(-c2cc(=O)[nH]c(=S)n2CC(N)=O)c1 [Example 380]	4470 1/s per M
COc1ccc(OCCO)c(-c2cc(=O)[nH]c(=S)n2CC(=O)NCCN)c1 [Example 378]	5040 1/s per M
COc1ccc(Cl)cc1-c1cc(=O)[nH]c(=S)n1CCCNS(C)(=O)=O [Example 353]	11000 1/s per M
COCCNC(=O)Cn1c(-c2ccc(OC)cc2OC)cc(=O)[nH]c1=S [Example 436]	3710 1/s per M
COc1ccc(-c2cc(=O)[nH]c(=S)n2CCC(=O)NCCN)c(OC)c1 [Example 444]	17400 1/s per M

Okay, next one:
State the recorded MPO kinact/Ki for this entry: NC(=O)Cn1c(-c2cccc3c2OCCO3)cc(=O)[nH]c1=S [Example 363] 9680 1/s per M
